Reported values of pIC50 for individual entries
- Tested on: A549
- assay-text: Antiproliferative activity against human A549 cells after 72 hrs by trypan blue exclusion assay
- Assay type: functional, cell-based
- particulars: A549, 72 h
Entry type: numeric. Quantity: pIC50, the -log10 of concentration in molar units.

Take a look at these entries with their results.
>  <entry-smiles>
C[C@H](O)c1cc2c(o1)C(=O)c1cccc(O)c1C2=O

>  <quantitative-readout>
6.11

$$$$
>  <entry-smiles>
C[C@H](O)c1cc2c(o1)C(=O)c1c(O)cccc1C2=O

>  <quantitative-readout>
5.37

$$$$
>  <entry-smiles>
CC1(C)CCC2=C(O1)c1ccccc1C(=O)C2=O

>  <quantitative-readout>
5.38

$$$$
>  <entry-smiles>
CC(=O)c1cc2c(o1)C(=O)c1c(O)cccc1C2=O

>  <quantitative-readout>
5.37

$$$$
>  <entry-smiles>
CC(C)=CCC1=C(O)C(=O)c2ccccc2C1=O

>  <quantitative-readout>
5.32

$$$$

# context switch: different compound, same pIC50
Request the reported pIC50 associated with CC(=O)c1cc2c(o1)C(=O)c1cccc(O)c1C2=O 5.70
